Numbers sourced from patent US7101915B1.

Item-by-item account of IC50 IL-2
Tested on: IL-2 production of mouse T cell strain EL-4 (TPA)
Measurement Protocol: Suppressive effect on the cytokine production of mouse T cell strain EL-4: IL-2
Format: cell-based
Condition Info: EL-4, TPA 10 ng/ml, 24 hours, ELISA

Please report the recorded IC50 IL-2 for "COc1ccccc1-c1cc(OC)c(-c2ccc(OCc3ccc(C)cc3)c(O)c2)c(O)c1OC" . >0.5 µg/mL

What measured IC50 IL-2 goes with "COc1cc(-c2ccc(OS(C)(=O)=O)cc2)c(OC)c(OS(C)(=O)=O)c1-c1ccc(OCc2c(C)cc(C)cc2C)c(OS(C)(=O)=O)c1" ? >2 µg/mL

Look at this compound and give its reported IC50 IL-2. "COc1cc(-c2ccc(C(F)(F)F)cc2)c(OC)c(OS(C)(=O)=O)c1-c1ccc(OCC=C(C)C)c(OS(C)(=O)=O)c1" >10 µg/mL

Fill in the blank: the reported IC50 IL-2 of C#CC(O)COc1ccc(-c2c(OC)cc(-c3ccc(O)cc3)c(OC)c2O)cc1O (stereo not shown) is ____. 0.5 µg/mL

Quick check: IC50 IL-2 of "COc1cc(-c2ccc(O)cc2)c(OC)c(O)c1-c1ccc(S(=O)(=O)CC=C(C)C)c(O)c1" ? 0.88 µg/mL

Continuing:
# IC50 IL-2 lookup, item "COc1cc(-c2ccc(OS(C)(=O)=O)cc2)c(OC)c(OS(C)(=O)=O)c1-c1cc(C=O)c(OCC=C(C)C)c(OS(C)(=O)=O)c1" >10 µg/mL

IC50 IL-2 for "COc1cc(-c2ccc(N(C)C)cc2)c(OC)c(OS(C)(=O)=O)c1-c1ccc(OCC=C(C)C)c(OS(C)(=O)=O)c1" ? >1 µg/mL

----------
Quick reference: ConA IC50 of the listed items.
System: C3H/HeN mouse splenocytes stimulated with Concanavalin A (Con A)
Measurement Protocol: Suppressive effect on mitogenic activity of mouse splenocytes in vitro, Con A as mitogen (MTT)
Type: cell-based
Condition Info: Con A 5 μg/ml as mitogen, 3 days

Consider the compound C=C/C=C\COc1ccc(-c2c(OC)cc(-c3ccc(O)cc3)c(OC)c2O)cc1O [Compound I-175] and give its measured ConA IC50. <0.02 µg/mL

Would you kindly share the measured ConA IC50 for COc1cc(-c2ccc(C(C)C)cc2)c(OC)c(OS(C)(=O)=O)c1-c1ccc(OCc2ccccc2)c(O)c1 [Compound I-361] ? <0.02 µg/mL

Field: next compound
Give its ConA IC50 value. Item: CC/C=C\COc1ccc(-c2c(OC)cc(-c3ccc(O)cc3)c(OC)c2O)cc1O [Compound I-9] <0.02 µg/mL

----------
Quick reference: ConA IC50 of the listed items.
Test system: C3H/HeN mouse splenocytes stimulated with Concanavalin A (Con A)
Measurement Protocol: Suppressive effect on mitogenic activity of mouse splenocytes in vitro, Con A as mitogen (MTT)
Type: cell-based
Condition Info: Con A 5 μg/ml as mitogen, 3 days

Query: ConA IC50; subject: "COc1cc(-c2c(OC)cc(-c3ccc(OS(C)(=O)=O)cc3)c(OC)c2OS(C)(=O)=O)ccc1OCC=C(C)C" <0.01 µg/mL

Continuing:
Report ConA IC50 for C/C=C\COc1ccc(-c2c(OC)cc(-c3ccc(O)cc3)c(OC)c2O)cc1O [Compound I-173] please. <0.02 µg/mL

Name the recorded ConA IC50 for "COc1cc(-c2ccc(O)cc2)c(OC)c(O)c1-c1ccc(OCc2ccco2)c(O)c1" . <0.02 µg/mL

Dear colleague, I am looking for the recorded ConA IC50 of the following compound: "COc1cc(-c2ccc(N(C)C)cc2)c(OC)c(O)c1-c1ccc(OCC=C(C)C)c(O)c1" <0.02 µg/mL

----------
Tested on: mouse thymoma strain EL4 cells
Measurement Protocol: Anti-proliferative activity on EL4 cells (MTT)
Format: cell-based
Condition Info: 3 days
Response field label takes y when EL-4 IC50 is strictly below 0.07 µg/mL and n in all other cases.

is_below(EL-4 IC50, 0.07 µg/mL) for "COc1cc(-c2ccc(C(C)C)cc2)c(OC)c(OS(C)(=O)=O)c1-c1ccc(OCc2ccccc2)c(O)c1" ? n

A record lists "COc1cc(-c2ccc(O)cc2)c(OC)c(O)c1-c1ccc(OC/C=C/Br)c(O)c1" . Is its EL-4 IC50 below 0.07 µg/mL? y

# TODO verify EL-4 IC50 < 0.07 µg/mL strictly for this compound: C/C=C\COc1ccc(-c2c(OC)cc(-c3ccc(O)cc3)c(OC)c2O)cc1O [Compound I-50] y

For "CC/C=C\COc1ccc(-c2c(OC)cc(-c3ccc(O)cc3)c(OC)c2O)cc1O" , is the recorded EL-4 IC50 below the cut-off of 0.07 µg/mL? y

Is EL-4 IC50 of "COc1cc(-c2ccc(N(C)C)cc2)c(OC)c(O)c1-c1ccc(OCc2ccc(C)cc2)c(O)c1" strictly below 0.07 µg/mL? n

Please indicate whether the reported EL-4 IC50 of C/C=C\COc1ccc(-c2c(OC)cc(-c3ccc(O)cc3)c(OC)c2O)cc1O [Compound I-173] is strictly below 0.07 µg/mL. y

Below 0.07 µg/mL on EL-4 IC50? Entry "COc1cc(-c2ccc(O)cc2)c(OC)c(O)c1-c1ccc(OCC=C(Cl)Cl)c(O)c1" y

For this compound, is EL-4 IC50 lower than 0.07 µg/mL? "COCOc1c(OC)c(-c2ccc(OS(C)(=O)=O)cc2)cc(OC)c1-c1ccc(OCc2ccccc2)c(O)c1" y

***
Field: below-cutoff. Rule: recorded EL-4 IC50 strictly less than 0.07 µg/mL. Subject: "COc1ccccc1-c1cc(OC)c(-c2ccc(OCC=C(C)C)c(O)c2)c(O)c1OC" n

Given "C=CCOc1ccc(-c2c(OC)cc(-c3ccc(O)cc3)c(OC)c2O)cc1O" , is recorded EL-4 IC50 strictly lower than 0.07 µg/mL? y

Say whether its EL-4 IC50 is strictly beneath 0.07 µg/mL. Entry: "CC(C)=CCOc1ccc(-c2cc(C)c(-c3ccc(O)cc3)cc2C)cc1O" y

I wonder whether C#CC(O)COc1ccc(-c2c(OC)cc(-c3ccc(O)cc3)c(OC)c2O)cc1O (centres unmarked) has EL-4 IC50 below 0.07 µg/mL. Can you tell? y

Find out if reported EL-4 IC50 for "COc1cc(-c2ccc(O)cc2)c(OC)c(O)c1-c1ccc(OC/C=C(/C)CO)c(O)c1" is less than 0.07 µg/mL y

Would you kindly verify if EL-4 IC50 of "CC#CCOc1ccc(-c2c(OC)cc(-c3ccc(O)cc3)c(OC)c2O)cc1O" is strictly less than 0.07 µg/mL? y

I wonder whether "COc1cc(-c2ccc(NCC=C(C)C)c(F)c2)c(OC)cc1-c1ccc(N(C)C)cc1" has EL-4 IC50 below 0.07 µg/mL. Can you tell? n

Given the entry "COc1cc(-c2ccc(O)cc2)c(OC)c(O)c1-c1ccc(OCC=C(C)Cl)c(O)c1" , would its reported EL-4 IC50 be below 0.07 µg/mL? y

Please state whether EL-4 IC50 is below 0.07 µg/mL for "COc1cc(-c2c(OC)cc(-c3ccc(OS(C)(=O)=O)cc3)c(OC)c2OS(C)(=O)=O)ccc1OCC=C(C)C" n

Answer whether the compound "COc1cc(-c2ccc(OCc3ccccc3)c(O)c2)c(OC)cc1-c1ccc(OCc2ccccc2)c(O)c1" has EL-4 IC50 strictly less than 0.07 µg/mL y

Dear reviewer, please state whether "COc1cc(-c2ccc(OCc3ccccc3)c(N)c2)c(OC)cc1-c1ccc(OS(C)(=O)=O)cc1" has EL-4 IC50 strictly beneath 0.07 µg/mL. n

Quick check: does "COc1cc(-c2ccc(N(C)C)cc2)c(OC)c(OS(C)(=O)=O)c1-c1ccc(OCc2ccccc2)c(O)c1" have EL-4 IC50 under 0.07 µg/mL? n

Given the entry "C/C=C/COc1ccc(-c2c(OC)cc(-c3ccc(O)cc3)c(OC)c2O)cc1O" , would its reported EL-4 IC50 be below 0.07 µg/mL? y

Does the reported EL-4 IC50 of the following compound sit strictly below 0.07 µg/mL? "COc1cc(-c2ccc(N(C)C)cc2)c(OC)c(O)c1-c1ccc(OCC=C(C)C)c(O)c1" y

----------
System: IL-5 production of mouse T cell strain EL-4 (TPA)
Measurement Protocol: Suppressive effect on the cytokine production of mouse T cell strain EL-4: IL-5
Assay type: cell-based
Condition Info: EL-4, TPA 10 ng/ml, 24 hours, ELISA
Lab note: anything with IC50 IL-5 below 20 ng/mL is marked 1 (yes); values at 20 ng/mL or higher are marked 0 (no).

Worked examples, 5 molecules total:
In plain terms, does "COc1cc(-c2ccc(O)cc2)c(OC)c(O)c1-c1ccc(OC/C=C/CO)c(O)c1" come in under 20 ng/mL for IC50 IL-5? 0 (no)

Report whether reported IC50 IL-5 is lower than 20 ng/mL (strictly) for "COc1cc(-c2ccc(O)cc2)c(OC)c(O)c1-c1ccc(OCc2cc(C)cc(C)c2)c(O)c1" 1 (yes)

I wonder whether "COc1cc(-c2ccc(O)cc2)c(OC)c(C)c1-c1ccc(OCCC=C(C)C)c(O)c1" has IC50 IL-5 below 20 ng/mL. Can you tell? 0 (no)

Answer whether the molecule "COc1cc(-c2ccc(O)cc2)c(OC)c(O)c1-c1ccc(OCC(C)=C(C)C)c(O)c1" has IC50 IL-5 strictly less than 20 ng/mL 0 (no)

I wonder whether "COc1cc(-c2c(OC)cc(-c3ccc(OS(C)(=O)=O)cc3)c(OC)c2CO)c(OC)cc1OCc1ccc(C)cc1" has IC50 IL-5 below 20 ng/mL. Can you tell? 0 (no)

Turning to the following molecule.
# check: IC50 IL-5 < 20 ng/mL for "COc1cc(-c2ccc(SC)cc2)c(OC)c(O)c1-c1ccc(OCc2ccccc2)c(O)c1" 1 (yes)
